System: SHIP enzyme
Assay: In vitro SHIP enzyme assay (Assay 1); also: key: a ‘+’ indicates a positive result for desired activity; a ‘−’ indicates a negative result for desired activity
Type: biochemical
Details: 100 μM inositol-1,3,4,5-tetrakisphosphate, Malachite Green
measure: Assay Number 1: SHIP enzyme assay

// query What value of Assay Number 1: SHIP enzyme assay has been recorded for this entry: COC(=O)c1cc(O)c(O)c2c1[C@@]1(C)CCC3C(C)(C)CCC[C@]3(C)[C@H]1C2 (stereo partly drawn) [Compound 8-Epipelorol, 8-Epipelorol]
// result +

// query Value lookup for Assay Number 1: SHIP enzyme assay; key = COC(=O)c1cc(O)c(O)c2c1[C@]1(C)CCC3C(C)(C)CCC[C@]3(C)[C@H]1C2 (stereo partly drawn)
// result +

// query Requested field: Assay Number 1: SHIP enzyme assay. Item: COC(=O)c1cc(O)c(O)c2c1[C@]1(C)CCC3C(C)(C)CCC[C@]3(C)[C@@H]1C2 (stereo partly drawn) [Compound 9-Epipelorol, 9-Epipelorol]
// result +

* * *

System: J774.1a macrophage cells
Experiment: Macrophage TNF-α production (Assay 2); also: key: a ‘+’ indicates a positive result for desired activity; a ‘−’ indicates a negative result for desired activity
Type: cell-based
Details: 10 μg/mL test compound, 100 ng/mL LPS, ELISA
measure: Assay Number 2: Macrophage TNF-α production

Below, 5 molecules whose answers are already recorded.
// query What measured Assay Number 2: Macrophage TNF-α production goes with Cc1cc(O)cc2c1[C@@]1(C)CCC3C(C)(C)CCC[C@]3(C)[C@H]1C2 (stereo partly drawn) [Compound 125] ?
// result +

// query Which measured Assay Number 2: Macrophage TNF-α production value corresponds to Cc1cc2c(cc1O)C[C@@H]1[C@@]3(C)CCCC(C)(C)[C@@H]3CC[C@@]21C [Compound 101] ?
// result +

// query Fill in the blank: the reported Assay Number 2: Macrophage TNF-α production of Cc1cc(OC(=O)CN)cc2c1[C@]1(C)CCC3C(C)(C)CCC[C@]3(C)[C@H]1C2 (stereo partly drawn) [Compound 103] is ____.
// result +

// query Return reported Assay Number 2: Macrophage TNF-α production; argument: COc1cc(O)cc2c1[C@]1(C)CC[C@H]3C(C)(C)CCC[C@]3(C)[C@H]1C2 [Compound 117]
// result +

// query What value of measured Assay Number 2: Macrophage TNF-α production is listed for CCc1cc(O)c(O)c2c1[C@]1(C)CCC3C(C)(C)CCC[C@]3(C)[C@H]1C2 (stereo partly drawn) [Compound 18A, reference compound] ?
// result +

I'm hoping you can list Assay Number 2: Macrophage TNF-α production for every molecule here, please.
1. COc1ccc2c(c1O)C[C@@H]1[C@@]3(C)CCCC(C)(C)[C@@H]3CC[C@@]21C [Compound 118]
2. Cc1cc(O)cc2c1[C@]1(C)CCC3C(C)(C)CCC[C@]3(C)[C@H]1C2 (stereo partly drawn) [Compound 100]
3. Cc1cc(OC(=O)C(N)CCCNC(=N)N)cc2c1[C@]1(C)CCC3C(C)(C)CCC[C@]3(C)[C@H]1C2 (stereo partly drawn) [Compound 105]
4. Cc1cc(O)cc2c1[C@]1(C)CCC3C(C)(C)CCC[C@]3(C)[C@@H]1C2 (stereo partly drawn) [Compound 124]
5. Cc1cc(OP(=O)(O)O)cc2c1[C@]1(C)CCC3C(C)(C)CCC[C@]3(C)[C@H]1C2 (stereo partly drawn) [Compound 109]
6. CC1(C)CCC[C@@]2(C)C1CC[C@@]1(C)c3c(C(=O)O)cc(O)c(O)c3C[C@@H]12 (stereo partly drawn) [Desmethylpelorol, reference compound]

// result
1. −
2. +
3. +
4. +
5. −
6. +
